Test system: primary AML specimens
Assay: Dose-response assays in primary AML specimens (6 days, CellTiterGlo)
Assay type: cell-based, human
Details: primary AML specimen 10H127; 6 days; read-out: IC50
The entries below are paired with their reported IC50.

RECORD SMILES: Cc1cccc(Nc2nc(CC(=O)Nc3ncc(C)s3)cs2)n1
IC50 / nM: 1920

RECORD SMILES: CC[C@H](CO)Nc1nc(NCc2ccc(-c3ccccn3)cc2)c2ncn(C(C)C)c2n1
IC50 / nM: 93.5

====

Catalogue of compounds with associated inhibition at 1 µM
Molecular target: CDK1 (Homo sapiens)
Construct: purchased BPS Bioscience 79597
Sequence (P06493 whole entry): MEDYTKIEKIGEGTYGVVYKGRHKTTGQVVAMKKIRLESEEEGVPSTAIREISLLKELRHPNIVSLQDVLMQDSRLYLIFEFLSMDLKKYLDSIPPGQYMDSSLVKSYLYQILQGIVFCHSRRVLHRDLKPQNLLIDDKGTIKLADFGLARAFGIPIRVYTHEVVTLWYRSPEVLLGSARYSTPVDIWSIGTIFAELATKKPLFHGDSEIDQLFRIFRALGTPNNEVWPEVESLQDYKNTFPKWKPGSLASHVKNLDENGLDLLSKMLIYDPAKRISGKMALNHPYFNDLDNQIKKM
Sequence (P14635 whole entry partner): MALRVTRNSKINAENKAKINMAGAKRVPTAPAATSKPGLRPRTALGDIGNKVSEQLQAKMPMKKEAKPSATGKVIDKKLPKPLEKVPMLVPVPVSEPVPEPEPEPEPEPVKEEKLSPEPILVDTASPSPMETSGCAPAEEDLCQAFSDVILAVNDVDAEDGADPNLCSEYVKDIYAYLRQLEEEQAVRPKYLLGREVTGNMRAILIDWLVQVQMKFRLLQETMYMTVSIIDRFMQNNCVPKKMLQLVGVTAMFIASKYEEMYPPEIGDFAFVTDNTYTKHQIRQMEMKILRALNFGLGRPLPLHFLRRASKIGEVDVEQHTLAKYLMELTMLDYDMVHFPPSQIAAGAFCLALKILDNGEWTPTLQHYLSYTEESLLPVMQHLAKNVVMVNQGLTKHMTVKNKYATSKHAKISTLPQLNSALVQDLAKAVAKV
Assay: CDK1 in vitro kinase activity, single concentration 1 μM
Type: biochemical
Conditions: single concentration 1 μM

RECORD SMILES: O=C(Cc1ccc(-c2ccccn2)cc1)Nc1ncc(SCc2cccnc2)s1
TARGET OF ASSAY: CDK1 (Homo sapiens)
inhibition at 1 µM / %: 69
//
RECORD SMILES: COc1ccc(CC(=O)Nc2ncc(SCc3cccnc3)s2)cc1
TARGET OF ASSAY: CDK1 (Homo sapiens)
inhibition at 1 µM / %: 69
//
RECORD SMILES: O=C(Cc1ccc(N2CCOCC2)cc1)Nc1ncc(SCc2cccnc2)s1
TARGET OF ASSAY: CDK1 (Homo sapiens)
inhibition at 1 µM / %: 81

// provenance: paper PMC12152147
